subject-of-test: human orexin receptor 1 (Homo sapiens (Human), UniProt O43613)
Sequence (O43613 whole entry): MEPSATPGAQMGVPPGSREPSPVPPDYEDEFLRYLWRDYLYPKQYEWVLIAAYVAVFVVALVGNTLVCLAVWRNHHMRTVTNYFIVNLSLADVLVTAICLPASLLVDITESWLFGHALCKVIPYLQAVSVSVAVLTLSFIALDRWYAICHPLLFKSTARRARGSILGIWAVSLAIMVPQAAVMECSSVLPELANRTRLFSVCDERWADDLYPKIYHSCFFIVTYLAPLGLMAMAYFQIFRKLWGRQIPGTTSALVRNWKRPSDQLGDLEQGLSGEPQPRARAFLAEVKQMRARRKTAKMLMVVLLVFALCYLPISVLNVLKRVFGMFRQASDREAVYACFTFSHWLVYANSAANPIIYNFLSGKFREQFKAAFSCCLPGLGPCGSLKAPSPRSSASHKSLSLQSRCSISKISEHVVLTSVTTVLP
protocol-text: Orexin antagonist activity, intracellular calcium FLIPR assay, RBL-2H3 cells expressing human orexin receptor 1
Assay type: cell-based
test-parameters: RBL-2H3 cells stably expressing human orexin receptor 1; orexin-A at approx. 80% maximal response; compound added 15 minutes before; read-out: Human Orexin1R IC50
pIC50: −log10 of the molar value.
quantity: pIC50

Some solved cases for reference:
molecule	subject-of-test	quantity	recorded-measurement
O=C(N[C@H]1CCC[C@@H]1Nc1cnc(C(F)(F)F)cn1)c1c(F)cccc1-n1nccn1	human orexin receptor 1 (Homo sapiens (Human), UniProt O43613)	pIC50	7.49
Cc1noc(-c2ccccc2C(=O)N[C@H]2CCC[C@]2(C)Nc2cnc(C(F)(F)F)cn2)n1	human orexin receptor 1 (Homo sapiens (Human), UniProt O43613)	pIC50	7.96
CC1(Nc2ncc(C(F)(F)F)cn2)CCCC1NC(=O)c1ncccc1-c1ncccn1 (centres unmarked)	human orexin receptor 1 (Homo sapiens (Human), UniProt O43613)	pIC50	7.18

(a) O=C(N[C@H]1CCC[C@@H]1Nc1ncc(C(F)(F)F)cc1Cl)c1ccccc1-n1nccn1
(b) O=C(N[C@H]1CCC[C@@H]1Nc1ccc(C(F)(F)F)cn1)c1cccc(F)c1-n1nccn1
QUERY: // max by pIC50 over [ a , b ] Give the chosen item's label as your response.
RESULT: a
(a: 7.54, b: 6.80)

* * *

subject-of-test: human orexin receptor 2 (Homo sapiens (Human))
Sequence (O43614 whole entry): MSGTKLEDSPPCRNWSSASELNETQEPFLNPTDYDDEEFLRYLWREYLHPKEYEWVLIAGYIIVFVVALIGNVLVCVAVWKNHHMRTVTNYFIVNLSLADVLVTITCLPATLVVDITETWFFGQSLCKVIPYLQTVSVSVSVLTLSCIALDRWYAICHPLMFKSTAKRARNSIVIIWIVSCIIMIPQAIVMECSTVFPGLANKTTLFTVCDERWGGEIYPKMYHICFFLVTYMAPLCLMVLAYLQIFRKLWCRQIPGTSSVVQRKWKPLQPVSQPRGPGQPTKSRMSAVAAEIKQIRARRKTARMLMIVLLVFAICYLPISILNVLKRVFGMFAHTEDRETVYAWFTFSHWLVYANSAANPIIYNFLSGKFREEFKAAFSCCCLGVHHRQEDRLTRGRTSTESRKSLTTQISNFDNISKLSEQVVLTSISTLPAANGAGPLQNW
protocol-text: Orexin antagonist activity, intracellular calcium FLIPR assay, RBL-2H3 cells expressing human orexin receptor 2
test-parameters: RBL-2H3 cells stably expressing human orexin receptor 2; orexin-A at approx. 80% maximal response; compound added 15 minutes before; read-out: Human Orexin2R IC50
quantity: IC50

molecule	IC50
Cc1noc(-c2ccccc2C(=O)N[C@H]2CCC[C@@H]2Nc2ncc(C(F)(F)F)nc2C)n1 [Example 141]	> 10 µM
O=C(N[C@H]1CCC[C@@H]1Nc1cnc(C(F)(F)F)cn1)c1ccccc1-c1ncccn1 [Example 38]	> 10 µM
CCOc1cnc(-c2ccccc2C(=O)N[C@H]2CCC[C@@H]2Nc2cnc(C(F)(F)F)cn2)nc1 [Example 135]	> 10 µM
O=C(NC1CC(F)(F)CC1Nc1ccc(C(F)(F)F)cn1)c1ccccc1-n1nccn1 (single isomer, unassigned) [Example 129]	8.75 µM
O=C(N[C@H]1CCC[C@@H]1Nc1ncc(C(F)(F)F)cc1F)c1ccccc1-c1ncccn1 [Example 138]	> 10 µM

QUERY: Fetch value of IC50 on human orexin receptor 2 (Homo sapiens (Human)) for Cc1ccc(-n2cccn2)c(C(=O)N[C@H]2CCC[C@@H]2Nc2cnc(C(F)(F)F)cn2)c1 [Example 48] .
RESULT: > 10 µM

QUERY: # return IC50 of COc1cccc(OC)c1C(=O)N[C@H]1CCC[C@@H]1Oc1cc(C(F)(F)F)ccn1 [Example 21] (system: human orexin receptor 2 (Homo sapiens (Human)))
RESULT: 6.42 µM

* * *

subject-of-test: human orexin receptor 1 (Homo sapiens (Human), UniProt O43613)
protocol-text: Orexin antagonist activity, intracellular calcium FLIPR assay, RBL-2H3 cells expressing human orexin receptor 1
test-parameters: RBL-2H3 cells stably expressing human orexin receptor 1; orexin-A at approx. 80% maximal response; compound added 15 minutes before; read-out: Human Orexin1R IC50
quantity: IC50 (µM)

(A) CC1(Nc2ncc(C(F)(F)F)cc2F)CCCC1NC(=O)c1ncccc1-c1ncccn1 (stereo not shown)
(B) O=C(N[C@H]1CCC[C@@H]1Nc1ccc(C(F)(F)F)cn1)c1ccccc1-c1ncccn1
(C) O=C(N[C@H]1CCC[C@@H]1Nc1cnc(C(F)(F)F)cn1)c1c(F)cccc1-n1cccn1
(D) Cc1ccc(-n2nccn2)c(C(=O)N[C@H]2CCC[C@@H]2Nc2ncc(C(F)(F)F)cn2)c1
QUERY: Order all 4 entries above by recorded IC50, highest first, lowest last. // ordering of labels required in reply
RESULT: C, B, D, A

* * *

subject-of-test: human orexin receptor 1 (Homo sapiens (Human), UniProt O43613)
protocol-text: Orexin antagonist activity, intracellular calcium FLIPR assay, RBL-2H3 cells expressing human orexin receptor 1
test-parameters: RBL-2H3 cells stably expressing human orexin receptor 1; orexin-A at approx. 80% maximal response; compound added 15 minutes before; read-out: Human Orexin1R IC50
quantity: IC50 (nM)

compound	IC50 [nM]
C[C@]1(Nc2cnc(C(F)(F)F)cn2)CCC[C@@H]1NC(=O)c1c(F)cccc1F [Example 88]	166
O=C(N[C@H]1CCC[C@@H]1Nc1ccc(C(F)(F)F)cn1)c1ncccc1-n1cccn1 [Example 101]	310
O=C(N[C@H]1CCC[C@@H]1Nc1cnc(C(F)(F)F)cn1)c1cc(F)ccc1-c1ncccn1 [Example 39]	81
O=C(N[C@H]1CCC[C@@H]1Nc1cnc(C(F)(F)F)cn1)c1c(Cl)cccc1-n1nccn1 [Example 40]	35

(a) O=C(NC1CC(F)(F)CC1Nc1ccc(C(F)(F)F)cn1)c1ccccc1-n1nccn1 (single isomer, unassigned) [Example 128]
(b) CCOc1cnc(-c2ccccc2C(=O)N[C@H]2CCC[C@@H]2Nc2cnc(C(F)(F)F)cn2)nc1 [Example 135]
QUERY: Of the two listed items, which has the higher IC50? First: a Second: b Please reply using the label of the selected record.
RESULT: b
(b: 94 nM, a: 33 nM)

(1) Cc1ccc(-n2nccn2)c(C(=O)N[C@H]2CCC[C@@H]2Nc2ccc(C(F)(F)F)nc2)c1 [Example 67]
(2) O=C(N[C@H]1CCC[C@@H]1Nc1cnc(C(F)(F)F)cn1)c1ccccc1-n1cccn1 [Example 31]
(3) O=C(N[C@H]1CCC[C@@H]1Nc1ncc(C(F)(F)F)cc1F)c1ccccc1-n1nccn1 [Example 105]
(4) COc1cccc(OC)c1C(=O)N[C@H]1CCC[C@@H]1Nc1ccc(C(F)(F)F)cn1 [Example 1]
(5) O=C(N[C@H]1CCC[C@@H]1Nc1ncc(C(F)(F)F)cn1)c1ccccc1-n1nccn1 [Example 18]
QUERY: List the 5 entries from lowest IC50 to highest IC50 value. Please reply with the labels ordered as requested. Many thanks.
RESULT: 3, 5, 2, 4, 1
(3: 39 nM, 5: 57 nM, 2: 122 nM, 4: 240 nM, 1: 891 nM)

(P) O=C(N[C@H]1CCC[C@@H]1Nc1cnc(C(F)(F)F)cn1)c1cc(F)cc(F)c1-n1nccn1 [Example 61]
(Q) O=C(N[C@H]1CCC[C@@H]1Nc1ncc(C(F)(F)F)cc1F)c1ccccc1-c1ncccn1 [Example 138]
(R) Cc1ccc(-n2nccn2)c(C(=O)N[C@H]2CCC[C@@H]2Nc2ccc(C(F)(F)F)cn2)c1 [Example 6]
QUERY: Ordering: ascending IC50. Order the labels as requested and list them.
RESULT: Q, R, P

(P) COc1ccc(C)cc1C(=O)N[C@H]1CCC[C@@H]1Nc1cnc(C(F)(F)F)cn1 [Example 37]
(Q) C[C@]1(Nc2cnc(C(F)(F)F)cn2)CCC[C@@H]1NC(=O)c1cc(F)ccc1-n1nccn1 [Example 84]
QUERY: Record comparison, field IC50: mark the lower of P and Q . // output: label of the selected item
RESULT: Q

* * *

subject-of-test: human orexin receptor 1 (Homo sapiens (Human))
protocol-text: Orexin antagonist activity, intracellular calcium FLIPR assay, RBL-2H3 cells expressing human orexin receptor 1
test-parameters: RBL-2H3 cells stably expressing human orexin receptor 1; orexin-A at approx. 80% maximal response; compound added 15 minutes before; read-out: Human Orexin1R IC50
pIC50: −log10 of the molar value.
quantity: pIC50

These solved cases illustrate the format of a correct answer.
compound	subject-of-test	quantity	recorded-measurement
CCc1nc(C(F)(F)F)cnc1N[C@H]1CCC[C@@H]1NC(=O)c1ccccc1-n1nccn1 [Example 111]	human orexin receptor 1 (Homo sapiens (Human))	pIC50	7.47
Cc1nc(C(F)(F)F)cnc1N[C@H]1CCC[C@@H]1NC(=O)c1ncccc1-n1nccn1 [Example 76]	human orexin receptor 1 (Homo sapiens (Human))	pIC50	7.48
C[C@@]1(Nc2cnc(C(F)(F)F)cn2)CCC[C@H]1NC(=O)c1ccccc1-n1nccn1 [Example 83]	human orexin receptor 1 (Homo sapiens (Human))	pIC50	5.60

(I) O=C(NC1CCCC1Cc1ccc(C(F)(F)F)cn1)c1ccccc1-n1nccn1 (single isomer, unassigned) [Example 25]
(II) O=C(N[C@H]1CCC[C@@H]1Nc1ccc(C(F)(F)F)cn1)c1ccccc1-n1cccn1 [Example 11]
QUERY: Of I and II , which shows the smaller pIC50 value? Identify your pick by its label.
RESULT: I
(I: 6.33, II: 6.77)

* * *

subject-of-test: human orexin receptor 1 (Homo sapiens (Human))
protocol-text: Orexin antagonist activity, intracellular calcium FLIPR assay, RBL-2H3 cells expressing human orexin receptor 1
test-parameters: RBL-2H3 cells stably expressing human orexin receptor 1; orexin-A at approx. 80% maximal response; compound added 15 minutes before; read-out: Human Orexin1R IC50
quantity: IC50 (nM)

Consider the reported IC50 for these compounds:
compound	subject-of-test	quantity	recorded-measurement
O=C(N[C@H]1CCC[C@@H]1Nc1cnc(C(F)(F)F)cn1)c1ncccc1-n1cccn1	human orexin receptor 1 (Homo sapiens (Human))	IC50	289
COc1cccc(OC)c1C(=O)N(C1CCC1)[C@H]1CCC[C@@H]1Nc1ccc(C(F)(F)F)cn1	human orexin receptor 1 (Homo sapiens (Human))	IC50	297
O=C(N[C@H]1CCC[C@@H]1Nc1cc(C(F)(F)F)ccn1)c1ccccc1-n1nccn1	human orexin receptor 1 (Homo sapiens (Human))	IC50	822

(I) O=C(N[C@H]1CCC[C@@H]1Nc1ncc(C(F)(F)F)cc1F)c1ncccc1-c1ncccn1
(II) CC1(Nc2ncc(C(F)(F)F)cc2F)CCCC1NC(=O)c1ncccc1-n1nccn1 (stereo not shown)
(III) CN(c1cnc(C(F)(F)F)cn1)[C@H]1CCC[C@@H]1NC(=O)c1cc(F)ccc1-n1nccn1
(IV) C[C@]1(Nc2cnc(C(F)(F)F)cn2)CCC[C@@H]1NC(=O)c1ncccc1C1CC1
QUERY: Ascending sort, IC50. Use the labels to give the ranking in the order requested.
RESULT: II, I, IV, III
(II: 8 nM, I: 24 nM, IV: 140 nM, III: 308 nM)

(I) O=C(N[C@H]1CCC[C@@H]1Nc1ncc(C(F)(F)F)cc1Cl)c1ncccc1-c1ncccn1
(II) CC1(Nc2ccc(C(F)(F)F)cn2)CCCC1NC(=O)c1ncccc1-n1nccn1 (stereo not shown)
(III) CN(c1cnc(C(F)(F)F)cn1)[C@H]1CCC[C@@H]1NC(=O)c1ccccc1-n1nccn1
(IV) CCOc1ccc(C)nc1C(=O)N[C@H]1CCC[C@@H]1Nc1cnc(C(F)(F)F)cn1
QUERY: Sort by IC50, descending. # list labels per requested ordering
RESULT: IV, III, I, II
